The values you see were collected from ChEMBL document CHEMBL1156842.

test: Plasma concentration in lean mouse at 30 mg/kg, po pretreated 1 hr before dextrose challenge measured after 2 hrs; format: ADME, organism-based; set-up: dose 30 mg/kg, route oral
assay-readout: concentration at 2 h (µM)

| compound | assay-readout | unit-label | reading |
| --- | --- | --- | --- |
| Cc1cc(Oc2ncc(C(F)(F)F)cc2Cl)ccc1CC1SC(=O)NC1=O (stereo unspecified) | concentration at 2 h | µM | 37 |

* * *

assay: Cmax in mouse at 2 mg/kg; type: ADME, organism-based; parameters: dose 2 mg/kg; settings: in vivo
assay-readout: Cmax (nM)

| compound | reading |
| --- | --- |
| Cc1cc(Oc2ncc(C(F)(F)F)cc2Cl)ccc1CC1SC(=O)NC1=O (stereo unspecified) | 1400 |
